- test system: PACAP-R3 (Homo sapiens)
- Sequence (P41587 24-438): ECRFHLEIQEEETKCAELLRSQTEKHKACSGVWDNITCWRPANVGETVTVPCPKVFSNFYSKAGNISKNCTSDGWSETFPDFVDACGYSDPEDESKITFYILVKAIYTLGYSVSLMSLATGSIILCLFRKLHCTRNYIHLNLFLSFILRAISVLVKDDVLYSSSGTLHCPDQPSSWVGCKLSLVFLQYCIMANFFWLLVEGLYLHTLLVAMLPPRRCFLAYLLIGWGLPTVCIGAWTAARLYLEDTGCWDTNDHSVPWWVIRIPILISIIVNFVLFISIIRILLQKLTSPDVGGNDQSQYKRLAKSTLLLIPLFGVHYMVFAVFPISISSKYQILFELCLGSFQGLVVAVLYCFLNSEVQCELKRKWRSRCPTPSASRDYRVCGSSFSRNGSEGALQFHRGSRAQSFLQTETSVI
- measurement description: Cyclic AMP SPA on CHO cells expressing PACAP R3
- Type: cell-based
- Set-up: expressed in transfected cells; host or cells: CHO cells (Geneticin selection)
- run conditions: cAMP SPA, CHO cells transfected with PACAP-R3; concentration at which 50% of maximum PACAP27 activity is achieved; NA = no detectable activities; read-out: R3 EC50
No end group written: not given here.
metric name: log10 EC50 (log10 of the value in nM)

- substance: "HSDAVFTDNYTRLRKQMAAKKYLNSIKNMR [Peptide R3P143]"
  test system: "PACAP-R3 (Homo sapiens)"
  metric name: "log10 EC50"
  test value: -0.70
- substance: "HSDAVFTDNYTRLRKQVAAKKYLQSIKKKR [Peptide R3P77]"
  test system: "PACAP-R3 (Homo sapiens)"
  metric name: "log10 EC50"
  test value: -0.40
- substance: "HSDAVFTDNYTRLRKQMAAKKYLNSILN [Peptide R3P47]"
  test system: "PACAP-R3 (Homo sapiens)"
  metric name: "log10 EC50"
  test value: -0.92
- substance: "HSDGIFTDSYSRYRKQKAVKKYLAAVL-NH2 [PAC17]"
  test system: "PACAP-R3 (Homo sapiens)"
  metric name: "log10 EC50"
  test value: -0.82
- substance: "HSDAVFTDNYTRLRKQMAAKKYLNSIKK [Peptide R3P51]"
  test system: "PACAP-R3 (Homo sapiens)"
  metric name: "log10 EC50"
  test value: -0.59
- substance: "HSDGIFTDSYSRYRKKMAVKKYLAAVL-NH2 [PAC16]"
  test system: "PACAP-R3 (Homo sapiens)"
  metric name: "log10 EC50"
  test value: -0.70
- substance: "HSDAVFTDNYTRLRKQLAAKKYLNDIKKGG [Peptide R3P31]"
  test system: "PACAP-R3 (Homo sapiens)"
  metric name: "log10 EC50"
  test value: -0.52
- substance: "HSDGIFTDSYSRYRKQMAVEKYLAAVL-NH2 [PAC20]"
  test system: "PACAP-R3 (Homo sapiens)"
  metric name: "log10 EC50"
  test value: -0.15
- substance: "HSDGIFTDSYSRYRKQMAVKKYLAAVK-NH2 [PAC27]"
  test system: "PACAP-R3 (Homo sapiens)"
  metric name: "log10 EC50"
  test value: 0.04
- substance: "HSDAVFTDNYTRLRKQMAGKKYLNSIKNKR [Peptide R3P101]"
  test system: "PACAP-R3 (Homo sapiens)"
  metric name: "log10 EC50"
  test value: 0.00
- substance: "HSDAVFTDNYTRLRKQLAAKKYLNDIKKGGT [Peptide R3P12]"
  test system: "PACAP-R3 (Homo sapiens)"
  metric name: "log10 EC50"
  test value: -0.30
- substance: "HSDGIFTDSYSRYRKQMAVKKYLAKVL-NH2 [PAC25]"
  test system: "PACAP-R3 (Homo sapiens)"
  metric name: "log10 EC50"
  test value: -1.40
- substance: "HSDAVFTDNYTRLRKQLAAKKYLNSIKKGGT [Peptide R3P22]"
  test system: "PACAP-R3 (Homo sapiens)"
  metric name: "log10 EC50"
  test value: 0.20
- substance: "HSDAVFTDNYTKLRKQLAAKKYLNDILNGGT [Peptide R3P11]"
  test system: "PACAP-R3 (Homo sapiens)"
  metric name: "log10 EC50"
  test value: 0.48
- substance: "HSDAVFTDNYTRLRKQMAKKKYLNSIKNRI [rR3P176]"
  test system: "PACAP-R3 (Homo sapiens)"
  metric name: "log10 EC50"
  test value: 0.30
- substance: "HSDAVFTDNYTRLRKQMAAHKYLNSIKNKRY [Peptide R3P73]"
  test system: "PACAP-R3 (Homo sapiens)"
  metric name: "log10 EC50"
  test value: -0.52
- substance: "H-HSDAVFTDNYTRLRKQMAPKKYLNSIKNKR [Peptide R3P108]"
  test system: "PACAP-R3 (Homo sapiens)"
  metric name: "log10 EC50"
  test value: 2.48
- substance: "HSDAVFTDNYTRLRKQMAVKKYLNSIKKKRY [Peptide R3P56]"
  test system: "PACAP-R3 (Homo sapiens)"
  metric name: "log10 EC50"
  test value: -0.40
- substance: "H-HSDGIFTDSYSRYRKQMAVKKYLAAVKQGGT-NH2 [Peptide R3P16]"
  test system: "PACAP-R3 (Homo sapiens)"
  metric name: "log10 EC50"
  test value: 1.00
- substance: "HSDAVFTDNYTRLRKQMAAKKYLNSIHNKR [Peptide R3P122]"
  test system: "PACAP-R3 (Homo sapiens)"
  metric name: "log10 EC50"
  test value: -0.70
- substance: "HSDAVFTDNYTRLRKQMAAKKYLNSIPNKR [Peptide R3P126]"
  test system: "PACAP-R3 (Homo sapiens)"
  metric name: "log10 EC50"
  test value: 0.00
- substance: "HSDAVFTDNYTRLRKQMAAKKYLNSIKNNR [Peptide R3P144]"
  test system: "PACAP-R3 (Homo sapiens)"
  metric name: "log10 EC50"
  test value: 0.48

Source of measurements: patent US6972319B1
